System: Escherichia coli TOP10
Experiment: shrunken log2 fold change of peptide-encoding DNA abundance (4.5 h post-induction vs induction); higher = less antimicrobial activity (less host growth inhibition)
Details: time post-induction: 4.5 h; library: site-saturation at positions 5, 18, 19, 20
Known shrunken log2 fold change of a selection of sequences
A bare number is all that is needed in reply.

Example entries begin here.
RRIRIRPPRLPRPRPRPHLPPRP; -0.0411
RRIRLRPPRLPRPRPRPKNPPRP; -0.606
RRIRIRPPRLPRPRPRPGMEPRP; -0.375
RRIRDRPPRLPRPRPRPGWCPRP; 0.201
RRIRDRPPRLPRPRPRPVEKPRP; 0.0436

Read the next record carefully.
Form: item RRIRLRPPRLPRPRPRPRGFPRP ; test system Escherichia coli TOP10; shrunken log2 fold change: 0.124

----------
Tested on: Escherichia coli TOP10
Assay: shrunken log2 fold change of peptide-encoding DNA abundance (4.5 h post-induction vs induction); higher = less antimicrobial activity (less host growth inhibition)
Settings: time post-induction: 4.5 h; library: site-saturation at positions 5, 18, 19, 20
Returns one of yes (1) or no (0); yes (1) when shrunken log2 fold change is >= -0.1.

RRIRCRPPRLPRPRPRPANGPRP; yes (1)
RRIRVRPPRLPRPRPRPNWLPRP; no (0)
RRIRIRPPRLPRPRPRPSAWPRP; yes (1)
RRIRARPPRLPRPRPRPEHAPRP; yes (1)
RRIRKRPPRLPRPRPRPDEKPRP; yes (1)
RRIRPRPPRLPRPRPRPQVLPRP; no (0)
RRIRMRPPRLPRPRPRPMYQPRP; yes (1)
RRIRWRPPRLPRPRPRPRYFPRP; no (0)

Shifting focus to the sequence that follows.
// query Record RRIRERPPRLPRPRPRPVESPRP ; criterion: shrunken log2 fold change no lower than -0.1. Met?
// result yes (1)

----------
Tested on: Escherichia coli TOP10
Assay: shrunken log2 fold change of peptide-encoding DNA abundance (4.5 h post-induction vs induction); higher = less antimicrobial activity (less host growth inhibition)
Details: time post-induction: 4.5 h; library: site-saturation at positions 5, 18, 19, 20
reported.property: shrunken log2 fold change

RRIRDRPPRLPRPRPRPFWDPRP; 0.148
RRIRLRPPRLPRPRPRPGEYPRP; -0.0271
RRIRGRPPRLPRPRPRPCMPPRP; -0.152

Now for a further sequence.
Measured shrunken log2 fold change of RRIRYRPPRLPRPRPRPYDRPRP : -0.039

----------
Tested on: Escherichia coli TOP10;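 also: peptides expressed intracellularly from a pBAD plasmid library in pooled LB shake-flask culture, induced with 0.3% L-arabinose, DNA abundance read by NGS, three biological replicates, DESeq2 with apeglm shrinkage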
Test: shrunken log2 fold change of peptide-encoding DNA abundance (4.5 h post-induction vs induction); higher = less antimicrobial activity (less host growth inhibition)
Details: time post-induction: 4.5 h; library: site-saturation at positions 5, 18, 19, 20
# shrunken log2 fold change >= 0.001 gives 1, anything below gives 0

Some entries whose results are on file:
RRIRRRPPRLPRPRPRPFPYPRP; 0
RRIRVRPPRLPRPRPRPVHPPRP; 1
RRIRARPPRLPRPRPRPMADPRP; 1

// query Quick check, shrunken log2 fold change >= 0.001? RRIRSRPPRLPRPRPRPPELPRP
// result 1

// query Check if shrunken log2 fold change >= 0.001 (inclusive). Item: RRIRCRPPRLPRPRPRPAWMPRP
// result 0
